# test_target: SARS-CoV-2 3CLpro (Severe acute respiratory syndrome coronavirus 2, UniProt P0DTD1)
# measurement_notes: cell-based
measured_attribute: EC50 (nM)
Numbers only, in nM.

Record summary for CCCC1CCC(COC(=O)NC(CC(C)C)C(=O)NC(C=O)CC2CCNC2=O)CC1 (stereo not shown) : reported EC50 = 1030

Source listed as paper PMC8673480.
